# protocolDetails: Circular dichroism (CD) spectroscopy, characterization of helical structure
# Assay type: physicochemical
# assaySetup: aqueous benign buffer pH 7.0, 5° C.
Square brackets hold non-standard residues; d marks the D form. Orn = NCCC[C@H](N)C(=O)O
measure: α-helical content (% helix) in aqueous conditions (%)

> print(dat)
                                  substance  unitname  endpointvalue
1  Ac-ALKKLLSTLSSA[Orn]SS[Orn]LSTLLKALKK-NH2 [D56]         %            3.5
2  Ac-AL[Orn][Orn]LLSTLSSAKSSKLSTLL[Orn]AL[Orn][Orn]-NH2 [D59]         %            6.9
3  Ac-ALKKLLSTLSSAKSSKLSTLLKALKK-amide (Ac-ALKKLLSTLSSAKSSKLSTLLKALKK-NH2) [D52]         %           13.7
4   Ac-KLKSLLSTLSSAKKKKLSTLLSALSK-NH2 [D26]         %            8.9
5   Ac-ALKKLLSTLSSARSSRLSTLLKALKK-NH2 [D58]         %            7.2
